# measured_on: T1, full length human SIRPα v1 stably expressed on CHOK1 or 293F cells (human, UniProt P78324 31-504)
# T1 construct: whole, on cells; also called CHOK1-human SIRPα v1; CHOK1-hSIRPα v1
# assay_method_text: competitive FACS, mFc-CD47 ECD on CHOK1-human SIRPα v1 cells
property: TOP blocking (%)
Numbers only, in %.

binder: hu025.023 (antibody, V domains shown, Humanized 025; also called hu025.23) VH: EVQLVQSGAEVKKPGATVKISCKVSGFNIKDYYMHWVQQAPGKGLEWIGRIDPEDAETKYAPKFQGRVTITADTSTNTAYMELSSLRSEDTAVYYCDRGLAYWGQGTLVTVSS VL: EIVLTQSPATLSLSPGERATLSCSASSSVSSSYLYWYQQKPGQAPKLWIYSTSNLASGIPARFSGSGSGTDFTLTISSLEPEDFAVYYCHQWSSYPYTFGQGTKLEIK
measurement_units: %
TOP blocking (%): 97.7

binder: hu1H9G4 (antibody, V domains shown) VH: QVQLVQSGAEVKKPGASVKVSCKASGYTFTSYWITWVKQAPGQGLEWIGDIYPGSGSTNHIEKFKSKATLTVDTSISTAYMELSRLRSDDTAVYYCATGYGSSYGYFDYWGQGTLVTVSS VL: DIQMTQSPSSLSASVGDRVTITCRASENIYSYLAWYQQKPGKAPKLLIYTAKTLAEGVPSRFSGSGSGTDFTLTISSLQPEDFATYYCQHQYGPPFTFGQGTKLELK
measurement_units: %
TOP blocking (%): 97.2

binder: HEFLB (antibody, V domains shown) VH: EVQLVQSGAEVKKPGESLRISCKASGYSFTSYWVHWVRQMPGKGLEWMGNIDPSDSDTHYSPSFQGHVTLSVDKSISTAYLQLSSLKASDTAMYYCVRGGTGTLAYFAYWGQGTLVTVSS VL: DVVMTQSPLSLPVTLGQPASISCRSSQSLVHSYGNTYLYWFQQRPGQSPRLLIYRVSNRFSGVPDRFSGSGSGTDFTLKISRVEAEDVGVYYCFQGTHVPYTFGGGTKVEIK
measurement_units: %
TOP blocking (%): 97.6

Attention now shifts to the item below.
Query :: In one line, give reported TOP blocking (%) of the entry hu025.060 (antibody, V domains shown, Humanized 025; also called hu025.60) VH: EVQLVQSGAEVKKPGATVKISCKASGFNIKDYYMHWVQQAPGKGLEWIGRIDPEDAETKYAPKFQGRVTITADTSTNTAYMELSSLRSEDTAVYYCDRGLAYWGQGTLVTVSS VL: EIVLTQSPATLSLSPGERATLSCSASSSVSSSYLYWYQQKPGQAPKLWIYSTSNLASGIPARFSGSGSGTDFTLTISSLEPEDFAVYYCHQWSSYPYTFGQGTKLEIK .
Result :: 98.7
